Where these numbers come from: the NIST ThermoML archive (doi:10.1021/je049711t)

# experiment_summary: refractive index (Na D-line) (dimensionless)
# measurement_context: 293.15 K; 101.33 kPa; Liquid; Standard Abbe refractometry
readout_label: refractive index

- molecule: "CCCCCOC(C)=O [pentyl ethanoate]"
  refractive index: 1.4021
- molecule: "O [water]"
  refractive index: 1.333
- molecule: "CC(=O)OC(C)C [1-methylethyl ethanoate]"
  refractive index: 1.3772
- molecule: "CC(=O)O [acetic acid]"
  refractive index: 1.3719
